# System: Mycobacterium tuberculosis
# assay method text: Antitubercular activity against Mycobacterium tuberculosis H37Rv in anaerobic condition after 7 days by low oxygen recovery assay
# Format: functional
# experimental conditions: 168 h
# yes = MIC below 2 µM (exclusive); no = MIC at/above 2 µM

INSERT INTO measurements (compound_smiles, class_label) VALUES
  ('O=[N+]([O-])c1cn2c(n1)OC[C@@H](OCc1ccc(-c3ccc(CO)cc3)cc1)C2', 'no'),
  ('N#Cc1ccc(-c2ccccc2CO[C@@H]2COc3nc([N+](=O)[O-])cn3C2)cc1', 'no'),
  ('CCOc1ccccc1-c1ccc(CO[C@@H]2COc3nc([N+](=O)[O-])cn3C2)cc1', 'yes'),
  ('O=[N+]([O-])c1cn2c(n1)OC[C@@H](OCc1ccc(-c3cccc(Cl)c3)cc1)C2', 'yes'),
  ('O=[N+]([O-])c1cn2c(n1)OC[C@@H](OCc1ccc(-c3ccc(C(F)(F)F)cc3Cl)cc1)C2', 'yes'),
  ('O=Cc1cccc(-c2ccc(CO[C@@H]3COc4nc([N+](=O)[O-])cn4C3)cc2)c1', 'yes'),
  ('NC(=O)c1ccc(-c2ccc(CO[C@@H]3COc4nc([N+](=O)[O-])cn4C3)cc2)cc1', 'no'),
  ('COc1c(F)cc(-c2ccc(CO[C@@H]3COc4nc([N+](=O)[O-])cn4C3)cc2)cc1F', 'yes'),
  ('Nc1ccc(-c2ccc(CO[C@@H]3COc4nc([N+](=O)[O-])cn4C3)cc2)cc1', 'yes');

---

# Tested on: Mycobacterium tuberculosis
# assay method text: Antitubercular activity against Mycobacterium tuberculosis H37Rv in anaerobic condition after 7 days by low oxygen recovery assay
# Format: functional
# experimental conditions: 168 h
Property: MIC; scope: individual compounds
property measured: MIC

INSERT INTO measurements (compound_smiles, property_measured, assay_result) VALUES
  ('O=[N+]([O-])c1cn2c(n1)OC[C@@H](OCc1ccc(-c3ccccc3C(F)(F)F)cc1)C2', 'MIC', '1.6 µM'),
  ('O=[N+]([O-])c1cn2c(n1)OC[C@@H](OCc1ccccc1-c1ccccc1)C2', 'MIC', '2.5 µM'),
  ('O=[N+]([O-])c1cn2c(n1)OC[C@@H](OCc1ccc(-c3ccc(OC(F)(F)F)cc3F)cc1)C2', 'MIC', '0.72 µM'),
  ('O=Cc1ccc(-c2ccc(CO[C@@H]3COc4nc([N+](=O)[O-])cn4C3)cc2)cc1', 'MIC', '1 µM'),
  ('O=[N+]([O-])c1cccc(-c2ccc(CO[C@@H]3COc4nc([N+](=O)[O-])cn4C3)cc2)c1', 'MIC', '0.76 µM'),
  ('O=[N+]([O-])c1cn2c(n1)OC[C@@H](OCc1ccc(-c3ccc(OC(F)(F)F)c(F)c3)cc1)C2', 'MIC', '0.34 µM'),
  ('COc1cccc(Cl)c1-c1ccc(CO[C@@H]2COc3nc([N+](=O)[O-])cn3C2)cc1', 'MIC', '0.74 µM'),
  ('O=[N+]([O-])c1cn2c(n1)OC[C@@H](OCc1ccc(-c3ccc(-c4ccccc4)cc3)cc1)C2', 'MIC', '> 32 µM'),
  ('O=[N+]([O-])c1cn2c(n1)OC[C@@H](OCc1cccc(-c3cccc(OCCCO)c3)c1)C2', 'MIC', '2.5 µM');
